- target.under.test: T1, LRP1 CR3-5 (human)
- T1 construct: range 852-973; also called L1 CR3-5
- measurement.notes: solid-phase assay; OD at the highest ligand concentration as percent of the highest OD of all ligands
readout.label: % max (%)
State just the number; it will be interpreted in %.

*Q* Value lookup for % max; key = RAP d3 (wild-type domain 3 of human RAP, amino acids 201-319 of mature RAP) (ligand, Expressed in E. coli from pET30(+)a, Ni-NTA purified; also called wild-type RAP d3; recombinant RAP d3; not shown: N-terminal hexahistidine and S-peptide tags of pET30(+)a) LDRLRRVSHQGYSTEAEFEEPRVIDLWDLEQSANLTDKELEAFREELKHFEAKIEKHNHYQKQLEIAHEKLRHAESVGDGERVSRSREKHALLEGRTKELGYTVKKHLQDLSGRISRAR
*A* 76

*Q* Value lookup for % max; key = RAP d3 forward mutant E251K, K256A, K270E (ligand, also called triple mutant; not shown: N-terminal hexahistidine and S-peptide tags of pET30(+)a) LDRLRRVSHQGYSTEAEFEEPRVIDLWDLAQSANLTDKELEAFREELKHFKAKIEAHNHYQKQLEIAHEELRHAESVGDGERVSRSREKHALLEGRTKELGYTVKKHLQDLSGRISRAR
*A* 2
